Target: CDK2/Cyclin A (Homo sapiens)
Experiment: Inhibition of CDK2/Cyclin A Retinoblastoma Kinase Activity
Type: biochemical
Details: 0.03 μM compound; Table 2

smilesText: COc1cc(NC(=O)N2CCC(Nc3nc(N)c(C(=O)c4c(F)cccc4F)s3)CC2)cc(OC)c1
CDK2 % Inhibition At 0.03 μM (%): 35

smilesText: Cc1ccc(S(=O)(=O)NC(=O)N2CCC(Nc3nc(N)c(C(=O)c4c(F)cccc4F)s3)CC2)cc1
CDK2 % Inhibition At 0.03 μM (%): 31

smilesText: COC(=O)[C@H](CC(C)C)NC(=O)N1CCC(Nc2nc(N)c(C(=O)c3c(F)cccc3F)s2)CC1
CDK2 % Inhibition At 0.03 μM (%): 24

smilesText: Nc1nc(NC2CCN(C(=O)Nc3ccc(Br)cc3)CC2)sc1C(=O)c1c(F)cccc1F
CDK2 % Inhibition At 0.03 μM (%): 27

smilesText: CCOC(=O)c1cccc(NC(=O)N2CCC(Nc3nc(N)c(C(=O)c4c(F)cccc4F)s3)CC2)c1
CDK2 % Inhibition At 0.03 μM (%): 29

smilesText: CCCNC(=O)N1CCC(Nc2nc(N)c(C(=O)c3c(F)cccc3F)s2)CC1
CDK2 % Inhibition At 0.03 μM (%): 30

smilesText: CCOC(=O)CCCCCNC(=O)N1CCC(Nc2nc(N)c(C(=O)c3c(F)cccc3F)s2)CC1
CDK2 % Inhibition At 0.03 μM (%): 28

smilesText: Nc1nc(NC2CCN(C(=O)NCCc3ccc4c(c3)OCO4)CC2)sc1C(=O)c1c(F)cccc1F
CDK2 % Inhibition At 0.03 μM (%): 25

====

Target: CDK2/Cyclin A (Homo sapiens, UniProt P24941)
Experiment: Inhibition of CDK2/Cyclin A Retinoblastoma Kinase Activity
Assay type: biochemical
Details: at 0.03 μM
Quick list: CDK2 % Inhibition at 0.03 μM per entry.

compound: CC1CCC(C(C)C)C(OC(=O)N2CCC(Nc3nc(N)c(C(=O)c4c(F)cccc4F)s3)CC2)C1 (stereo not shown)
CDK2 % Inhibition at 0.03 μM (%): 9
--
compound: CCCC(CCC)C(=O)N1CCC(Nc2nc(N)c(C(=O)c3c(F)cccc3F)s2)CC1
CDK2 % Inhibition at 0.03 μM (%): 17
--
compound: Nc1nc(NC2CCN(C(=O)c3c(F)cccc3Cl)CC2)sc1C(=O)c1c(F)cccc1F
CDK2 % Inhibition at 0.03 μM (%): 21
--
compound: Cc1noc(C)c1C(=O)N1CCC(Nc2nc(N)c(C(=O)c3c(F)cccc3F)s2)CC1
CDK2 % Inhibition at 0.03 μM (%): −9
--
compound: Nc1nc(NC2CCN(C(=O)c3csc(C4COc5ccccc5O4)n3)CC2)sc1C(=O)c1c(F)cccc1F (stereo not shown)
CDK2 % Inhibition at 0.03 μM (%): 23
--
compound: Cc1nn(C)c2ccc(C(=O)N3CCC(Nc4nc(N)c(C(=O)c5c(F)cccc5F)s4)CC3)c(Cl)c12
CDK2 % Inhibition at 0.03 μM (%): 16
--
compound: CCCc1c(C(=O)N2CCC(Nc3nc(N)c(C(=O)c4c(F)cccc4F)s3)CC2)cnn1-c1ccccc1
CDK2 % Inhibition at 0.03 μM (%): 33

====

Tested on: HCT-116 cell line
Assay: Inhibition of cell growth, tetrazolium salt (MTT) assay
Assay type: cell-based
Details: 0.25 μM compound; HCT-116; Table 4; 0.25 µM

compound: Nc1nc(NC2CCN(C(=O)c3cccs3)CC2)sc1C(=O)c1c(F)cccc1F [Example Q64]
systemName: HCT-116 cell line
HCT-116 % Inhibition at 0.25 μM, %: 25

compound: CCCCCCOc1ccc(C(=O)N2CCC(Nc3nc(N)c(C(=O)c4c(F)cccc4F)s3)CC2)cc1 [Example Q30]
systemName: HCT-116 cell line
HCT-116 % Inhibition at 0.25 μM, %: 47

compound: CCCCCCOc1ccc(C(=O)N2CCC(Nc3nc(N)c(C(=O)c4c(F)cccc4F)s3)CC2)cc1 [Example Q31]
systemName: HCT-116 cell line
HCT-116 % Inhibition at 0.25 μM, %: 41

compound: Nc1nc(NC2CCN(C(=O)c3cccs3)CC2)sc1C(=O)c1c(F)cccc1F [Example Q61]
systemName: HCT-116 cell line
HCT-116 % Inhibition at 0.25 μM, %: 34

====

Molecular target: CDK2/Cyclin A (Homo sapiens, UniProt P24941)
Test: Inhibition of CDK2/Cyclin A Retinoblastoma Kinase Activity
Conditions: apparent Ki, CDK2/proteolyzed cyclin A, Rb fragment substrate, 25 μM ATP
Structures can show the parent of a compound that is named as a salt.
We label by threshold. Values of Ki strictly beneath 0.8 nM are Criterion met. Values of 0.8 nM and up are Criterion not met.

compound: CN1CCC(Oc2ccc(S(=O)(=O)N3CCC(Nc4nc(N)c(C(=O)c5c(F)cccc5F)s4)CC3)cn2)CC1 [Example H14, Hydrochloride]
assignedCategory: Criterion met
--
compound: Nc1nc(NC2CCN(S(=O)(=O)CCSC3CCCC3)CC2)sc1C(=O)c1c(F)cccc1F [Example K38, Trifluoroacetic Acid Salt]
assignedCategory: Criterion not met
--
compound: CS(=O)(=O)N1CCC(Nc2nc(N)c(C(=O)c3c(F)cccc3F)s2)C1 (stereo not drawn)
assignedCategory: Criterion not met
--
compound: Nc1nc(NC2CCN(S(=O)(=O)c3ccc(CN4CCOCC4)cc3)CC2)sc1C(=O)c1c(F)cccc1F [Example J8, Hydrochloride Salt]
assignedCategory: Criterion not met
--
compound: Nc1nc(NC2CCN(S(=O)(=O)c3ccc(SCCc4ccccn4)nc3)CC2)sc1C(=O)c1c(F)cccc1F [Example L3, Hydrochloride]
assignedCategory: Criterion met
--
compound: COc1ccc(S(=O)(=O)N2CCC(Nc3nc(N)c(C(=O)c4c(F)cccc4F)s3)CC2)cn1
assignedCategory: Criterion not met
--
compound: Nc1nc(NC2CN(C(c3ccccc3)c3ccccc3)C2)sc1C(=O)c1c(F)cccc1F
assignedCategory: Criterion not met
--
compound: Nc1nc(NC2CCN(S(=O)(=O)c3ccc(Br)s3)CC2)sc1C(=O)c1c(F)cccc1F
assignedCategory: Criterion not met
--
compound: Cc1cc(C(=O)N2CCC(Nc3nc(N)c(C(=O)c4c(F)cccc4F)s3)CC2)ccc1Cl
assignedCategory: Criterion not met
--
compound: Nc1nc(NC2CCN(S(=O)(=O)c3ccc(N4CCC[C@H](CO)C4)nc3)CC2)sc1C(=O)c1c(F)cccc1F
assignedCategory: Criterion met
--
compound: Nc1nc(NC2CCN(S(=O)(=O)c3ccc(-c4cccnc4)cc3)CC2)sc1C(=O)c1c(F)cccc1F [Example I8, Trifluoroacetic Acid Salt]
assignedCategory: Criterion met
--
compound: C[C@@H](NC(=O)N1CCC(Nc2nc(N)c(C(=O)c3c(F)cccc3F)s2)CC1)c1ccccc1
assignedCategory: Criterion not met
--
compound: Nc1nc(NC2CCN(S(=O)(=O)c3ccc(-c4c[nH]cn4)cc3)CC2)sc1C(=O)c1c(F)cccc1F [Example F30, Trifluoroacetic Acid Salt]
assignedCategory: Criterion met
--
compound: Cn1ccnc1SCCCS(=O)(=O)N1CCC(Nc2nc(N)c(C(=O)c3c(F)cccc3F)s2)CC1
assignedCategory: Criterion not met
--
compound: Nc1nc(NC2CCN(S(=O)(=O)c3ccc(N4CCN(C=O)CC4)nc3)CC2)sc1C(=O)c1c(F)cccc1F [Example G16, Trifluoroacetic Acid Salt]
assignedCategory: Criterion met
--
compound: Nc1nc(NC2CCN(S(=O)(=O)CCCN3CCCC3)CC2)sc1C(=O)c1c(F)cccc1F
assignedCategory: Criterion not met
--
compound: Cn1cncc1-c1ccc(S(=O)(=O)N2CCC(Nc3nc(N)c(C(=O)c4c(F)cccc4F)s3)CC2)cc1 [Example F32, Trifluoroacetic Acid Salt]
assignedCategory: Criterion met
--
compound: CC(C)(C)NCCOc1ccc(S(=O)(=O)N2CCC(Nc3nc(N)c(C(=O)c4c(F)cccc4F)s3)CC2)cn1 [Example H20, Hydrochloride Salt]
assignedCategory: Criterion not met
--
compound: CN(C)CCCSc1ccc(S(=O)(=O)N2CCC(Nc3nc(N)c(C(=O)c4c(F)cccc4F)s3)CC2)cn1 [Example L5, Dihydrochloride]
assignedCategory: Criterion not met
--
compound: Nc1nc(NC2CCNCC2)sc1C(=O)c1c(F)cccc1F
assignedCategory: Criterion not met
--
compound: COc1ccc(C(=O)N2CCC(Nc3nc(N)c(C(=O)c4c(F)cccc4F)s3)CC2)cc1
assignedCategory: Criterion not met
--
compound: Nc1nc(NC2CCN(S(=O)(=O)c3cc(Cl)sc3Cl)CC2)sc1C(=O)c1c(F)cccc1F
assignedCategory: Criterion not met
--
compound: Nc1nc(NC2CCN(S(=O)(=O)c3ccc(OCCn4ccnc4)nc3)CC2)sc1C(=O)c1c(F)cccc1F [Example H9, Hydrochloride]
assignedCategory: Criterion met
--
compound: Nc1nc(NC2CCN(S(=O)(=O)c3ccc(N4CCNCC4)nc3)CC2)sc1C(=O)c1c(F)cccc1F
assignedCategory: Criterion met
--
compound: Nc1nc(NC2CCN(S(=O)(=O)CCNC3CCS(=O)(=O)C3)CC2)sc1C(=O)c1c(F)cccc1F (stereo not drawn) [Example K31, Trifluoroacetic Acid Salt]
assignedCategory: Criterion not met
